The reported measurements were obtained from ChEMBL document CHEMBL3621178.

System: A498
EXPERIMENTAL PROTOCOL: Growth inhibition of human A498 cells assessed as cell viability at 10 uM incubated for 48 hrs by sulforhodamine B assay
Type: functional
RECORDED CONDITIONS: A498, 48 h, read-out: Activity
Recorded viability at 10 µM values for a group of compounds are listed next.
Write down the numeric answer in % and omit the unit.

COMPOUND	TEST TARGET	viability at 10 µM / %
CN(C)c1ccc(C2CC(c3cc4ccccc4oc3=O)=NN2c2ccc(S(=O)(=O)NC(=O)NCc3ccccc3)cc2)cc1 (stereo not given)	A498	51.2
COc1ccc(C2CC(c3ccco3)=NN2c2ccc(S(=O)(=O)NC(=O)NCc3ccccc3)cc2)cc1 (stereo not given)	A498	96.2
COc1ccc(C2CC(c3cc4ccccc4oc3=O)=NN2c2ccc(S(=O)(=O)NC(=O)Nc3ccccc3C)cc2)cc1 (stereo not given)	A498	94.7
COc1ccc(NC(=O)NS(=O)(=O)c2ccc(N3N=C(c4cc5ccccc5oc4=O)CC3c3ccc(N(C)C)cc3)cc2)cc1 (stereo not given)	A498	80.6

Then this compound:
Query: Please report the recorded viability at 10 µM for O=C(NCc1ccccc1)NS(=O)(=O)c1ccc(N2N=C(c3cc4ccccc4oc3=O)CC2c2cccs2)cc1 (stereo not given) .
Result: 107
